Target: aromatase (Homo sapiens)
Construct: 800 μl cell suspension (1 million cells); endogenous in cells; host or cells: JEG-3 human choriocarcinoma cells
Sequence (P11511 whole entry): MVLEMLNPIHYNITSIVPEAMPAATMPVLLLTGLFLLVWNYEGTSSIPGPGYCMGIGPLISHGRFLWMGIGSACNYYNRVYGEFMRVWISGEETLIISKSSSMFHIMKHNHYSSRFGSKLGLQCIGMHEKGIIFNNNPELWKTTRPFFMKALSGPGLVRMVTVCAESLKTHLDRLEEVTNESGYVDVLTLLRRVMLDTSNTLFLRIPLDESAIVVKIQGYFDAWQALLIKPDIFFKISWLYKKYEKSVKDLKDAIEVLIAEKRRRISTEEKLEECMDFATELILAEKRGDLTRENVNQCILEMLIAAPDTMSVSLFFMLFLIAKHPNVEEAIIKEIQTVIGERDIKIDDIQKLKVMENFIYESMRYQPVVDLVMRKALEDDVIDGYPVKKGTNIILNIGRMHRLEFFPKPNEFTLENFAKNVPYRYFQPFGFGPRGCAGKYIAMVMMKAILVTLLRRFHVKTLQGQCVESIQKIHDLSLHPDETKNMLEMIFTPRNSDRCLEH
Assay: Aromatase inhibiting capacity in JEG-3 cells
Type: cell-based
Conditions: FIG. 1, enterolactone within 1.0 to 10.0 μM
Description: The effects of HMR and structurally related lignans (enterolactone, enterodiol and 7-hydroxyenterolactone) were studied on formation of ^3H-17β-estradiol from ^3H-andostenedione in JEG-3 cells, human choriocarcinoma cell line. […] Cells were maintained in DMEM containing 10% fetal calf serum (FCS). […] For in-line detection of the radioactive metabolites, the eluent of the HPCL column was continuously mixed with liquid scintillant and then monitored with in-line radioactivity detector.
Quantity: Inhibition of 3H-17β-estradiol formation from 3H-androstenedione (aromatization)

{"Molecule": "COc1cc(CC2C(=O)OCC2C(O)c2ccc(O)c(OC)c2)ccc1O (stereo not shown) [HMR, hydroxymatairesinol]", "Result": "no inhibitory effects"}
{"Molecule": "O=C1OC[C@H](Cc2cccc(O)c2)[C@H]1[C@@H](O)c1cccc(O)c1 [7-hydroxyenterolactone]", "Result": "no inhibitory effects"}
